# System name: full length (FL) LXRβ (Homo sapiens, UniProt P55055, DUP175-175)
# Construct: the full length (FL) proteins of LXRα (amino acids 1-447); NP005684; NP009052; expressed in transfected cells; host or cells: HEK293
# Sequence (P55055 with tags, fused parts or gaps DUP175-175): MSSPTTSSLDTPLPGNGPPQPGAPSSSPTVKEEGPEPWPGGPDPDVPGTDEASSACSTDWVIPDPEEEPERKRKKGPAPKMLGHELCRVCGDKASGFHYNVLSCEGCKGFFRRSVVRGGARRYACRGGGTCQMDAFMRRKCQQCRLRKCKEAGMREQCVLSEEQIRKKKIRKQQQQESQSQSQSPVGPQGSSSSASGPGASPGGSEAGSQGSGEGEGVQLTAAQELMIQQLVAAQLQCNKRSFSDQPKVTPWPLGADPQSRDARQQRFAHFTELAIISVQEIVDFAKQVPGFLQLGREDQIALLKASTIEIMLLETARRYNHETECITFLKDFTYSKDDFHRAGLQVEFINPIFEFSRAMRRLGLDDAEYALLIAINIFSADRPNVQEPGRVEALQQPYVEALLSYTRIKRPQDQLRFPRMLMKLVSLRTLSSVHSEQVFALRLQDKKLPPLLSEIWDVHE
# Experimental protocol: LXR Gal4 reporter transient transfection assay (FL-M2H Gal4β)
# Format: cell-based
# Condition details: HEK293 cells, full length LXRβ; read-out: FL-M2H Gal4β (EC50 range)
# Protocol: The tested compounds were usually dissolved, tested and stored as 20 mM stock solutions in DMSO. […] LXRα and LXRβ activity status was determined via detection of interaction with coactivator and corepressor proteins in mammalian two-hybrid experiments (M2H). […] Interaction was monitored via activation of a coexpressed Firefly Luciferase Reporter gene under control of a promoter containing repetitive GAL4 response elements (vector pFRLuc; Stratagene). […]
Observable: EC50

Sample records with EC50:
Molecule: COc1c(C(=O)O)ccc(-c2cccc(-c3c(-c4ccsc4C#N)c4cc(F)ccc4n3S(=O)(=O)c3ccc(C)cc3)c2)c1Cl
EC50: < 100 nM
--
Molecule: Cc1ccc(S(=O)(=O)n2c(-c3cccc(-c4ccc(C(=O)NS(C)(=O)=O)cc4Cl)c3)c(-c3ccsc3C#N)c3cc(F)ccc32)cc1
EC50: < 100 nM
--
Molecule: Cc1ccc(S(=O)(=O)n2c(-c3cccc(-c4ccc(CN(C)C)cc4)c3)c(-c3ccsc3C#N)c3cc(F)ccc32)cc1
EC50: < 100 nM
--
Molecule: Cc1ccc(S(=O)(=O)n2c(-c3cccc(-c4ccc(C(C)(C)N)cc4Cl)c3)c(-c3ccsc3C#N)c3cc(F)ccc32)cc1
EC50: 100 to 1000 nM
--
Molecule: CC(O)(C(=O)O)c1ccc(-c2cccc(-c3c(-c4c(C#N)cccc4C#N)c4cc(F)ccc4n3S(=O)(=O)c3ccc(C(F)F)cc3)c2)cc1 (stereo not shown)
EC50: < 100 nM
--
Molecule: Cc1ccc(S(=O)(=O)n2c(-c3cccc(C4CC4C(=O)O)c3)c(-c3ccsc3C#N)c3ccncc32)cc1 (stereo not shown)
EC50: < 100 nM

Record summary for Cc1ccc(S(=O)(=O)n2c(-c3cccc(N4[C@@H]5CC[C@H]4C[C@@H](C(=O)O)C5)c3)c(-c3ccsc3C#N)c3cc(F)ccc32)cc1 : reported EC50 = < 100 nM

Entry under test: N#Cc1sccc1-c1c(-c2cccc(-c3ccc(C(=O)NCCS(=O)(=O)O)cc3Cl)c2)n(S(=O)(=O)c2ccc(C(F)F)cc2)c2ccc(F)cc12 . Its EC50 was < 100 nM
